# growth inhibition per record follows
- PROTOCOL_NOTES: NCI Yeast Anticancer Drug Screen. Data for the mlh1 rad18 strain (AID 175)
- EXPERIMENTAL_CONTEXT: S. cerevisiae mlh1 rad18 strain growth inhibition; at 50.0 µM (retest, dose inferred, filed as 5.0); active compounds read high
The panel holds about 79,000 compounds, 15% with a hit somewhere; the sample as a whole holds those more often.
Report as a plain number; the unit % is understood.

Return reported growth inhibition; argument: `CC(=O)N(C)c1ccc(/C=C2\C=Cc3ccccc32)cc1`
92

More entries:
Return reported growth inhibition; argument: `Cc1cc(N(CCOS(C)(=O)=O)CCOS(C)(=O)=O)ccc1C=Nc1ccccc1C(=O)O`
91

// repeat for `CC(/C=C/c1cccs1)=N\NC(=S)NCC(C)C` and report
96

// repeat for `N#COc1ccc(Oc2ccc(OC#N)cc2)cc1` and report
-15

// repeat for `O=C(Nc1ccc(Cl)cc1)Nc1nnc2nc(C(C(=O)/C=C/c3ccccc3)c3nc4nnc(NC(=O)Nc5ccc(Cl)cc5)n4[nH]c3=O)c(=O)[nH]n12` and report
8

// repeat for `COc1ccc2nccc(C(=O)CBr)c2c1` and report
37

// repeat for `Nc1cccc2cccnc12` and report
66
